test details: Cmin in HIV infected patient at 300 mg qd measured after 16.60 hrs by plasma based assay using HPLC
Assay type: ADME, organism-based
assay setup: human, read-out: Cmin
experimental endpoint: concentration at 16.6 h (µg/mL)
# output: bare number, implied unit µg/mL

IN: Query concentration at 16.6 h for `COC(=O)N[C@H](C(=O)N[C@@H](Cc1ccccc1)[C@@H](O)CN(Cc1ccc(-c2ccccn2)cc1)NC(=O)[C@@H](NC(=O)OC)C(C)(C)C)C(C)(C)C`
OUT: 0.196

* * *

test details: Cmax in HIV infected patient at 300 mg qd measured after 16.60 hrs by plasma based assay using HPLC
Assay type: ADME, organism-based
Design: dose 300 mg
assay setup: human
experimental endpoint: Cmax (ng/mL)
# output: bare number, implied unit ng/mL

IN: Query Cmax for COC(=O)N[C@H](C(=O)N[C@@H](Cc1ccccc1)[C@@H](O)CN(Cc1ccc(-c2ccccn2)cc1)NC(=O)[C@@H](NC(=O)OC)C(C)(C)C)C(C)(C)C [ATAZANAVIR]
OUT: 7220

* * *

test details: Plasma concentration in HIV infected patient at 400 mg qd measured after 13.06 hrs by plasma based assay using HPLC
Assay type: ADME, organism-based
assay setup: human
experimental endpoint: concentration at 13.06 h (ng/mL)
# output: bare number, implied unit ng/mL

IN: Query concentration at 13.06 h for `COC(=O)N[C@H](C(=O)N[C@@H](Cc1ccccc1)[C@@H](O)CN(Cc1ccc(-c2ccccn2)cc1)NC(=O)[C@@H](NC(=O)OC)C(C)(C)C)C(C)(C)C`
OUT: 465

* * *

test details: Plasma concentration in HIV infected patient at 300 mg qd measured after 16.60 hrs by plasma based assay using HPLC
Format: ADME, organism-based
assay setup: human
experimental endpoint: concentration at 16.6 h
Units required after the number.

IN: Query concentration at 16.6 h for `COC(=O)N[C@H](C(=O)N[C@@H](Cc1ccccc1)[C@@H](O)CN(Cc1ccc(-c2ccccn2)cc1)NC(=O)[C@@H](NC(=O)OC)C(C)(C)C)C(C)(C)C`
OUT: 1630 ng/mL

* * *

test details: Cmin in HIV infected patient at 400 mg qd measured after 13.06 hrs by plasma based assay using HPLC
Assay type: ADME, organism-based
assay setup: human, read-out: Cmin
experimental endpoint: concentration at 13.06 h (ng/mL)
# output: bare number, implied unit ng/mL

IN: Query concentration at 13.06 h for `COC(=O)N[C@H](C(=O)N[C@@H](Cc1ccccc1)[C@@H](O)CN(Cc1ccc(-c2ccccn2)cc1)NC(=O)[C@@H](NC(=O)OC)C(C)(C)C)C(C)(C)C`
OUT: 342

* * *

test details: Cmax in HIV infected patient at 400 mg qd measured after 13.06 hrs by plasma based assay using HPLC
Type: ADME, organism-based
Design: dose 400 mg
assay setup: human
experimental endpoint: Cmax (ng/mL)
# output: bare number, implied unit ng/mL

IN: Query Cmax for `COC(=O)N[C@H](C(=O)N[C@@H](Cc1ccccc1)[C@@H](O)CN(Cc1ccc(-c2ccccn2)cc1)NC(=O)[C@@H](NC(=O)OC)C(C)(C)C)C(C)(C)C`
OUT: 787

These data points were gathered from ChEMBL document CHEMBL1671733.
